Recorded values, source patent US20200390899A1.

- Assay Target: human TLR8 (Homo sapiens, UniProt Q9NR97)
- Construct: host or cells: HEK293 reporter cells
- Sequence (Q9NR97 27-1041): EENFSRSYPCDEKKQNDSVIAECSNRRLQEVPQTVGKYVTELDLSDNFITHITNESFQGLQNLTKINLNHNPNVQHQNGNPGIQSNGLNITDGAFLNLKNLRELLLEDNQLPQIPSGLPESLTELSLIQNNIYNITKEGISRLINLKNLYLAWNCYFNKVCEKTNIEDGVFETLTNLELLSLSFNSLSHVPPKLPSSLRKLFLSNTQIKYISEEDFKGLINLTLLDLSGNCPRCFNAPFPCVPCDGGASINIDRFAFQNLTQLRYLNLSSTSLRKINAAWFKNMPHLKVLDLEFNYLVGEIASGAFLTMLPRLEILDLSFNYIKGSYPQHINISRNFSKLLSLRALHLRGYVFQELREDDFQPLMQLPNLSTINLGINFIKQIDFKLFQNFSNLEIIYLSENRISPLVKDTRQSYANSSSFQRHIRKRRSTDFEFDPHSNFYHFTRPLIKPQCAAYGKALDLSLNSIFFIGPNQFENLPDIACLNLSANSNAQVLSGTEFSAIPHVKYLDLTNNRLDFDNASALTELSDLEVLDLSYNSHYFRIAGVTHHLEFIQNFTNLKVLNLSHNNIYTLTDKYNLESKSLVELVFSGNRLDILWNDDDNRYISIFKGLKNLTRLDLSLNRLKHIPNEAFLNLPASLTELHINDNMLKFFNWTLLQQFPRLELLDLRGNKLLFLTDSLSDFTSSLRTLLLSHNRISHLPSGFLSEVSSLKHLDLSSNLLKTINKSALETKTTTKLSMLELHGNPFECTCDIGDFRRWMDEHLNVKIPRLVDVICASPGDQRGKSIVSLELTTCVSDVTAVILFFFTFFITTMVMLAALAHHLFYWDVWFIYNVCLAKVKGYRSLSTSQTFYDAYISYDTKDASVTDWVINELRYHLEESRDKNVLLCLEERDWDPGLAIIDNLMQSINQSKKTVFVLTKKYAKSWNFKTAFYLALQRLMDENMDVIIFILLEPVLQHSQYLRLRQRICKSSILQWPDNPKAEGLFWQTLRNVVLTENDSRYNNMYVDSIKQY
- Test Method Notes: HEK293 NFKB reporter assay, human TLR8
- Type: cell-based
- Condition Parameters: Table 1b; HEK293 reporter cells expressing human TLR8; read-out: HEK293 hTLR8 EC50
# reported EC50; entries follow

Check out these entries, answers already filled in.
>  <Compound>
CCCN(CCCN)C(=O)C1=Cc2ccc(-c3cccc(S(=O)(=O)N4CC(CO)C4)c3)cc2N=C(N)C1 [Bz-17]

>  <EC50>
> 9 µM

$$$$
>  <Compound>
CCCN(CCCCN)C(=O)C1=Cc2ccc(-c3cccc(S(=O)(=O)N4CC(CO)C4)c3)cc2N=C(N)C1 [Bz-24]

>  <EC50>
> 9 µM

$$$$

Consider the record given below.
Reported EC50 ( CCCN(Cc1ccc(CN2CCNCC2)cc1)C(=O)C1=Cc2ccc(-c3cccc(S(=O)(=O)N4CC(CO)C4)c3)cc2N=C(N)C1 [Bz-32] ) = > 9 µM

* * *

- Assay Target: human TLR8 (Homo sapiens, UniProt Q9NR97)
- Construct: host or cells: HEK293 reporter cells
- Test Method Notes: HEK293 NFKB reporter assay, human TLR8
- Type: cell-based
- Condition Parameters: Table 1c; HEK293 reporter cells expressing human TLR8; read-out: HEK293 hTLR8 EC50
Measurement Type: EC50

Check out these entries, answers already filled in.
>  <Compound>
CCCN(CCC)C(=O)C1=Cc2ccc(-c3cccc(S(=O)(=O)N4CC5(CNC5)C4)c3)cc2N=C(N)C1 [Bz-52]

>  <Value Reported>
1320 nM

$$$$
>  <Compound>
CCCN(CCC)C(=O)C1=Cc2ccc(C#CCCCN)cc2N=C(N)C1 [Bz-68]

>  <Value Reported>
3070 nM

$$$$
>  <Compound>
CCCN(CCC)C(=O)C1=Cc2ccc(C#CCCCNC(=O)OC(C)(C)C)cc2N=C(N)C1 [Bz-67]

>  <Value Reported>
2050 nM

$$$$
>  <Compound>
CCCNN(CC)C(=O)C1=Cc2ccc(-c3cccc(S(=O)(=O)N4CC(CO)C4)c3)cc2N=C(N)C1 [Bz-72]

>  <Value Reported>
4250 nM

$$$$
>  <Compound>
CCCN(CCC)C(=O)C1=Cc2ccc(CCCCCN)cc2N=C(N)C1 [Bz-74]

>  <Value Reported>
2560 nM

$$$$

Reported EC50 ( CCCN(Cc1ccc(CN2CCNCC2)cc1)C(=O)C1=Cc2ccc(-c3cccc(S(=O)(=O)N4CC(CO)C4)c3)cc2N=C(N)C1 [Bz-49] ) = ≥ 9000 nM

Reported EC50 ( CCCN(Cc1ccc(CN)cc1)C(=O)C1=Cc2ccccc2N=C(N)C1 [Bz-59] ) = 870 nM

Reported EC50 ( CCCN(CCCNC(=O)c1ccc(OCC)cc1)C(=O)C1=Cc2ccc(-c3cccc(S(=O)(=O)N4CC(CO)C4)c3)cc2N=C(N)C1 [Bz-51] ) = 1920 nM
